Assay overview: Quantitative High-Throughput drug screen in 47 multiple myeloma cell lines against the NCATS MIPE library collection: KHM11_PLB cell viability assay (AID 1918962); also: nearly all actives have a fitted effect of over 35% in size
Condition: KHM11 myeloma cell viability, CellTiter-Glo ATP luminescence, 48 h; series mostly up to 45.8 µM
Results filed as inconclusive are left out. Active and inactive are the calls of the source. Calls follow the shape of the dose curve; as a rule, active = well fitted cell-killing curve with a large enough effect; inconclusive = small, poorly fitted or top-dose-only effect, or effect the other way; inactive = no such curve, though single readings can be large or run the other way.
The categories you may choose from are 1 = active, -1 = inactive

O=C(Nc1ccc(OC(F)(F)F)cc1)c1sccc1NCc1ccnc2ccccc12 | -1
CN(C)c1nc(Cc2ccc(NC(=O)c3ccc(C(F)(F)F)cc3)cc2)nc(N(C)C)c1CC(=O)O | -1
CCn1c(-c2nonc2N)nc2cncc(CNC3CCNCC3)c21 | 1
N#CC(c1ccnc(NCCc2cccnc2)n1)c1nc2ccccc2s1 (stereo not given) | 1

Here is another compound to look at.
Request: Which result was noted for this compound in the test: C[C@@]1(c2cc(-c3cncnc3)c(F)cc2F)CCSC(N)=N1
Result: 1

----------
Assay overview: qHTS of pediatric cancer cell lines to identify multiple opportunities for drug repurposing: Primary screen for Rh30 cells (AID 1347107); also: nearly all actives have a fitted effect of over 75% in size
Condition: Rh30 rhabdomyosarcoma viability, CellTiter-Glo luminescence, 48 h; series mostly up to 46 µM
Inconclusive results are not listed. The source made the active and inactive calls. The call rests on the fitted dose curve; in most records, active means well fitted cell-killing curve with a large enough effect; inconclusive means small, poorly fitted or top-dose-only effect; inactive means no such curve, though single readings can be large or run the other way.
Select the matching outcome among 1.0 (active), 0.0 (inactive)

CCNC(=O)CCCC=CC[C@@H]1[C@H](C=CC(O)CCc2ccccc2)[C@@H](O)C[C@@H]1O (some centres not stated) | 0.0
CN1[C@H]2CC[C@H]1CC(OC(=O)c1c[nH]c3ccccc13)C2 (some centres not stated) | 0.0
COc1ccc2nc3cc(Cl)ccc3c(Nc3cc(CN4CCCC4)c(O)c(CN4CCCC4)c3)c2n1 | 0.0

Request: Would you mind telling me which call this test gave COc1cccc(OC)c1-c1cc(C(=O)NC2(C(=O)O)C3CC4CC(C3)CC2C4)nn1-c1ccnc2cc(Cl)ccc12 (configuration not stated) ?
Result: 0.0

Request: Status in this test for OC[C@H]1O[C@@H](OCCc2ccc(O)cc2)[C@H](O)[C@@H](O)[C@H]1O ?
Result: 0.0

Request: # outcome recorded in this test, key = CC(C)CNc1ccnc(NCc2csc(-c3ccccc3)n2)n1
Result: 0.0

Request: What was the test verdict on CC[C@H](NC(=O)[C@H](C)NC)C(=O)N1C[C@@H](O)C[C@H]1Cc1c(-c2[nH]c3cc(F)ccc3c2C[C@H]2C[C@H](O)CN2C(=O)[C@H](CC)NC(=O)[C@H](C)NC)[nH]c2cc(F)ccc12 ?
Result: 0.0

Request: Please let me know the test result on file for CCC[C@@H](NC(=O)[C@@H]1[C@H]2CCC[C@@H]2CN1C(=O)[C@@H](NC(=O)[C@@H](NC(=O)c1cnccn1)C1CCCCC1)C(C)(C)C)C(=O)C(=O)NC1CC1 .
Result: 0.0

----------
Assay overview: Quantitative High-Throughput drug screen in 47 multiple myeloma cell lines against the NCATS MIPE library collection: AMO1_DSMZ cell viability assay (AID 1918927; also: nearly all actives have a fitted effect of over 30% in size)
Condition: AMO1 myeloma cells viability, CellTiter-Glo ATP luminescence, 48 h; series mostly up to 45.8 µM
Results filed as inconclusive are left out. Activity calls are given as the source filed them. Calls come from the whole dose curve; as a rule, active = well fitted cell-killing curve with a large enough effect; inconclusive = small, poorly fitted or top-dose-only effect, or effect the other way; inactive = no such curve, though single readings can be large or run the other way.
Returns: one label drawn from active, inactive

Field: example entries. Status: answers known.
O=C(O)c1nc(=O)[nH]c(=O)[nH]1 | inactive
CN(C)N=Nc1nc[nH]c1C(N)=O | inactive
N#CC(=C1Nc2ccccc2S1)c1ccnc(OCc2ccc(CN3CCOCC3)cc2)n1 | active
CCCCC[C@H](O)C=C[C@H]1[C@H](O)CC(=O)[C@H]1CCCCCCC(=O)O | inactive
CC1=C[C@@H]2[C@@H]([C@@H](O)C[C@@]3(C)[C@H]2C[C@@H](C)[C@]3(O)C(=O)CO)[C@@]2(C)Cc3cnn(-c4ccccc4)c3C=C12 | active
CC[C@@H]([C@H](C)O)n1ncn(-c2ccc(N3CCN(c4ccc(OCC5CO[C@@](Cn6cncn6)(c6ccc(F)cc6F)C5)cc4)CC3)cc2)c1=O (some centres undefined) | active

Request: I would be grateful if you could indicate the recorded call for CN(C)CCOc1ccc(C(=C(CCCl)c2ccccc2)c2ccccc2)cc1 .
Result: inactive

Request: What outcome does the record of this test show for O=C(Nc1ncc(SCCN2CCCC2)s1)[C@]1(c2ccc(S(=O)(=O)C3CC3)cc2)C[C@@H]1C1CCCCC1 ?
Result: active

Request: Fill in: this test's call for Nc1nc(Cl)nc2c1ncn2[C@@H]1O[C@H](CO)[C@@H](O)[C@H]1F is ___
Result: active
